tested on: 786-0; assay: NCI tumour cell line growth inhibition, 48 h
Active and inactive are the calls of the source. Cut-off read from the data, not from the text of the source: active = GI50 up to about 1.1 µM and inactive = higher.
Response enum: active, inactive

Examples from the recorded data:
> print(dat)
                                   compound  label.value
1  COc1cc(C2C3=C(N=C4SC(C(C)=O)=C(C)N42)c2ccccc2CC3)cc(OC)c1OC (stereo not drawn)     inactive
2                       Clc1cc2nsnc2c(Cl)n1     inactive
3  O=S(=O)(Oc1ccc2ccccc2c1-c1c(OS(=O)(=O)C(F)(F)F)ccc2ccccc12)C(F)(F)F     inactive
4  COC(=O)[C@H](Cc1ccccc1)NP(=O)(O)OCC1C=CC(n2cc(C)c(=O)[nH]c2=O)O1 (stereo partly drawn)     inactive

Let us examine a further case.
-- ask Test call for this compound, please: O=S(=O)(O)c1ccc2c(/N=N/c3cccc4ccccc34)c(O)c(S(=O)(=O)O)cc2c1
-- reply inactive
